# system-tested: P99 β-lactamase enzyme (Enterobacter cloacae)
# Sequence (P05364 21-381): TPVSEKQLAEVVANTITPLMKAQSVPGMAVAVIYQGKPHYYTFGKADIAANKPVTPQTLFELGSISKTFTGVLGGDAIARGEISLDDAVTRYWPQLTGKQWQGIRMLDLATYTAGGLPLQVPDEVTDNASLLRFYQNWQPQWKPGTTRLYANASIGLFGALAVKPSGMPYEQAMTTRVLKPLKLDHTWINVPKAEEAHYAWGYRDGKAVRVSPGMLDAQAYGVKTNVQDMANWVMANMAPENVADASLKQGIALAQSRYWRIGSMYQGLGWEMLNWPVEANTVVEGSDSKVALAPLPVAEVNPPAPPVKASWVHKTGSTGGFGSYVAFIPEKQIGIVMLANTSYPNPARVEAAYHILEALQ
# assay-info: biochemical
measure-name: IC50

Observed IC50 on P99 β-lactamase enzyme (Enterobacter cloacae) for O=C(O)C1=CS[C@@H]2/C(=C\c3cn4c(n3)SCC4)C(=O)N12 [Example 1] , please.
< 5 nM

###

# system-tested: TEM-1 β-lactamase enzyme (Escherichia coli, UniProt P62593)
# Sequence (P62593 24-286 limits assumed): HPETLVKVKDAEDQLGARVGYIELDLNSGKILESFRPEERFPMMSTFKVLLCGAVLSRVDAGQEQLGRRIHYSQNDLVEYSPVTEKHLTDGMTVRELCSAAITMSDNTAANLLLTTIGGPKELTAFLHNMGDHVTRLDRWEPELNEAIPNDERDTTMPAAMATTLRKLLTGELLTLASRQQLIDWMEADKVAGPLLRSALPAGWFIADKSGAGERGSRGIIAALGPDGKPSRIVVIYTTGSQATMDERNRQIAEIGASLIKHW
# assay-info: β-lactamase inhibitory activity: 50% inhibition of β-lactam hydrolysis, TEM-1
measure-name: pIC50
Scale: pIC50 equals -log10([C]), with [C] in mol/L.

I am curious: what pIC50 value has been reported for O=C(O)C1=CS[C@@H]2/C(=C\c3cn4c(n3)SCC4)C(=O)N12 ?
8.00

###

# system-tested: OXA-1 β-lactamase enzyme (Escherichia coli)
# Sequence (P13661 26-276): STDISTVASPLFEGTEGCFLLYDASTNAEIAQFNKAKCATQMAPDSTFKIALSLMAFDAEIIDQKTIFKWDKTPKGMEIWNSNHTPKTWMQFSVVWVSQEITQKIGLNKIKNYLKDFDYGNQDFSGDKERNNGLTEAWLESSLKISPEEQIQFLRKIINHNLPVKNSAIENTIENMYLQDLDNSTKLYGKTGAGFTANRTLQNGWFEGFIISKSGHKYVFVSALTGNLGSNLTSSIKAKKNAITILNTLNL
# assay-info: biochemical
measure-name: IC50
Answers without a unit are incomplete; give the number and then its unit.

Observed IC50 on OXA-1 β-lactamase enzyme (Escherichia coli) for O=C(O)C1=CS[C@@H]2/C(=C\c3cn4c(n3)SCC4)C(=O)N12 [Example 1] , please.
10 nM

###

# system-tested: PC1 β-lactamase enzyme (Staphylococcus aureus)
# Sequence (P00807 25-281): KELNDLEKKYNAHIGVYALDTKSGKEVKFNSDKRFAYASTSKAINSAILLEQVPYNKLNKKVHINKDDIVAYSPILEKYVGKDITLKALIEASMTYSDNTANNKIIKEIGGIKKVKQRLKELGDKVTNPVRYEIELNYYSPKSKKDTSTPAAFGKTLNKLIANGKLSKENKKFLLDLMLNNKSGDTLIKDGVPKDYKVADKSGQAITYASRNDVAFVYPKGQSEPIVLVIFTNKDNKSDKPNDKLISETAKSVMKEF
# assay-info: biochemical
measure-name: IC50 (nM)
Note: unit nM is implicit; provide only the numeric part.

I am curious: what IC50 value has been reported for O=C(O)C1=CS[C@@H]2/C(=C\c3cn4c(n3)SCC4)C(=O)N12 ?
10

###

# system-tested: BC II β-lactamase enzyme (Bacillus cereus)
# Sequence (P04190 31-257): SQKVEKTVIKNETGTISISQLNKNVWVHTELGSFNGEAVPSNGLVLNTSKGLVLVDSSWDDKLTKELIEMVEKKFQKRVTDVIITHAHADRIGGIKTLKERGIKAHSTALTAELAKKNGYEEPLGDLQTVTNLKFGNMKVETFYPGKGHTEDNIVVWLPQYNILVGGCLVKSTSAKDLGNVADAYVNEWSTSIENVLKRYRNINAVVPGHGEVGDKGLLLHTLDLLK
# assay-info: β-lactamase inhibitory activity: 50% inhibition of β-lactam hydrolysis, BC II
measure-name: pIC50
Scale: pIC50 equals -log10([C]), with [C] in mol/L.

I am curious: what pIC50 value has been reported for O=C(O)C1=CS[C@@H]2/C(=C\c3cn4c(n3)SCC4)C(=O)N12 [Example 1] ?
4.31

###

# system-tested: P. mirabilis β-lactamase enzyme
# assay-info: β-lactamase inhibitory activity: 50% inhibition of β-lactam hydrolysis, P. mirabilis
# experimental-conditions: read-out: I50 (concentration required to achieve 50% inhibition of β-lactam hydrolysis)
measure-name: IC50
Answers without a unit are incomplete; give the number and then its unit.

I am curious: what IC50 value has been reported for O=C(O)C1=CS[C@@H]2/C(=C\c3cn4c(n3)SCC4)C(=O)N12 [Example 1] ?
10 nM
